# study system: LRP6 expressed on HEK cells transfected with the LRP6 plasmid
# method summary: Dkk1-AP conditioned medium on LRP6-transfected HEK cells, AP activity in cell lysate, wild type = 100%
recorded metric: reduction of binding to LRP6 against wild-type Dkk1

{"binder": "mouse Dkk1-AP mutant H210E (ligand, UniProt O54908 32-272, looked up, not shown: large carriers) TLNSVLINSNAIKNLPPPLGGAGGQPGSAVSVAPGVLYEGGNKYQTLDNYQPYPCAEDEECGSDEYCSSPSRGAAGVGGVQICLACRKRRKRCMRHAMCCPGNYCKNGICMPSDHSHFPRGEIEESIIENLGNDHNAAAGDGYPRRTTLTSKIYHTKGQEGSVCLRSSDCAAGLCCAREFWSKICKPVLKEGQVCTKHKRKGSHGLEIFQRCYCGEGLACRIQKDHHQASNSSRLHTCQRH", "result value": "> 50%"}
